Taken from the supplement of paper PMC11061612.

- Test system: CAL-62 (Thyroid Gland Carcinoma)
- TEST_NAME: combination Emax (second highest fraction inhibited in the dose matrix, 72 h); higher = more inhibition; extreme values may be limits of the assay
Below, each of the molecules is paired with its reported combination Emax value.
OUTCOME_MEASURE: combination Emax

INSERT INTO measurements (molecule, endpoint_result) VALUES
  ('CC(=O)c1c(C)c2cnc(Nc3ccc(N4CCNCC4)cn3)nc2n(C2CCCC2)c1=O [Palbociclib] + Cc1c2c(nn1C)CSCc1cc(n(C)n1)CSc1cc(c3ccccc3c1)OCCCc1c(C(=O)O)n(C)c3c-2c(Cl)ccc13 [AZD5991] (first compound max 10 µM, 7x7, partner max 1 µM)', 0.308),
  ('CC1(C)CCC(CN2CCN(c3ccc(C(=O)NS(=O)(=O)c4ccc(NCC5CCOCC5)c([N+](=O)[O-])c4)c(Oc4cnc5[nH]ccc5c4)c3)CC2)=C(c2ccc(Cl)cc2)C1 [Venetoclax] + COc1cc(Nc2ncc3c(n2)-c2ccc(Cl)cc2C(c2c(F)cccc2OC)=NC3)ccc1C(=O)O [Alisertib] (first compound max 1 µM, 7x7, partner max 10 µM)', 0.51),
  ('Cc1c2c(nn1C)CSCc1cc(n(C)n1)CSc1cc(c3ccccc3c1)OCCCc1c(C(=O)O)n(C)c3c-2c(Cl)ccc13 [AZD5991] + CC1(C)CCC(CN2CCN(c3ccc(C(=O)NS(=O)(=O)c4ccc(NCC5CCOCC5)c([N+](=O)[O-])c4)c(Oc4cnc5[nH]ccc5c4)c3)CC2)=C(c2ccc(Cl)cc2)C1 [Venetoclax] (first compound max 1 µM, 7x7, partner max 1 µM)', 0.148),
  ('NC1(C(=O)N[C@@H](CCO)c2ccc(Cl)cc2)CCN(c2ncnc3[nH]ccc23)CC1 [Capivasertib] + COc1nnc2ccc(N3CCC(c4ccc(OCCN5CCN(C)C(=O)[C@H]5C)cc4)CC3)nn12 [AZD5153] (first compound max 10 µM, 7x7, partner max 1 µM)', 0.751),
  ('CN(CCO)CC[C@H](CSc1ccccc1)Nc1ccc(S(=O)(=O)NC(=O)c2ccc(N3CCC([C@@H](O)c4ccccc4-c4ccc(Cl)cc4)CC3)cc2)cc1S(=O)(=O)C(F)(F)F [AZD4320] + CS(=O)(=O)CCNCc1ccc(-c2ccc3ncnc(Nc4ccc(OCc5cccc(F)c5)c(Cl)c4)c3c2)o1 [Lapatinib] (first compound max 1 µM, 7x7, partner max 10 µM)', 0.911),
  ('Cc1nc(Nc2ncc(C(=O)Nc3c(C)cccc3Cl)s2)cc(N2CCN(CCO)CC2)n1 [Dasatinib] + CC(=O)Nc1cccc(-n2c(=O)n(C3CC3)c(=O)c3c(Nc4ccc(I)cc4F)n(C)c(=O)c(C)c32)c1 [Trametinib] (first compound max 2 µM, 7x7, partner max 1 µM)', 0.955),
  ('C=CCn1c(=O)c2cnc(Nc3ccc(N4CCN(C)CC4)cc3)nc2n1-c1cccc(C(C)(C)O)n1 [AZD1775] + CCc1c2c(nc3ccc(O)cc13)-c1cc3c(c(=O)n1C2)COC(=O)[C@]3(O)CC [SN-38] (first compound max 1 µM, partner max 0.3 µM)', 0.893),
  ('C[C@@H](Nc1cc(F)cc(F)c1)c1cc(C(=O)N(C)C)cc2c(=O)cc(N3CCOCC3)oc12 [AZD8186] + C1CN(CCC1(C(=O)N[C@@H](CCO)C2=CC=C(C=C2)Cl)N)C3=NC=NC4=C3C=CN4 [AZD5363] (first compound max 10 µM, 7x7, partner max 10 µM)', 0.165),
  ('Cc1cc2ncnn2cc1Nc1ncc2c(n1)n(C1CCOCC1)c(=O)n2C [AZD7648] + C=CCn1c(=O)c2cnc(Nc3ccc(N4CCN(C)CC4)cc3)nc2n1-c1cccc(C(C)(C)O)n1 [AZD1775] (first compound max 10 µM, partner max 1 µM)', 0.69),
  ('C[C@@H](Nc1cc(F)cc(F)c1)c1cc(C(=O)N(C)C)cc2c(=O)cc(N3CCOCC3)oc12 [AZD8186] + CC(=O)c1c(C)c2cnc(Nc3ccc(N4CCNCC4)cn3)nc2n(C2CCCC2)c1=O [Palbociclib] (first compound max 10 µM, 7x7, partner max 10 µM)', 0.36),
  ('Cc1c2c(nn1C)CSCc1cc(n(C)n1)CSc1cc(c3ccccc3c1)OCCCc1c(C(=O)O)n(C)c3c-2c(Cl)ccc13 [AZD5991] + Nc1ccn([C@@H]2O[C@H](CO)[C@@H](O)C2(F)F)c(=O)n1 [Gemcitabine] (first compound max 1 µM, 7x7, partner max 0.3 µM)', 0.751),
  ('CC1(C)CCC(CN2CCN(c3ccc(C(=O)NS(=O)(=O)c4ccc(NCC5CCOCC5)c([N+](=O)[O-])c4)c(Oc4cnc5[nH]ccc5c4)c3)CC2)=C(c2ccc(Cl)cc2)C1 [Venetoclax] + C[C@@H]1COCCN1C2=NC(=NC(=C2)C3(CC3)[S@](=N)(=O)C)C4=C5C=CNC5=NC=C4 [AZD6738] (first compound max 1 µM, 7x7, partner max 10 µM)', 0.83),
  ('CS(=O)(=O)CCNCc1ccc(-c2ccc3ncnc(Nc4ccc(OCc5cccc(F)c5)c(Cl)c4)c3c2)o1 [Lapatinib] + C[C@@H](Oc1cc(-c2cnn(C3CCNCC3)c2)cnc1N)c1c(Cl)ccc(F)c1Cl [Crizotinib] (first compound max 10 µM, 7x7, partner max 10 µM)', 0.776);
